# Species: Mus musculus
# assayMethodText: Change in the latency time on day 1 to that of day 2
# Assay type: functional
Each record here notes measured Delta latency time.
Remember to put the unit after the number in your answer.

Worked examples follow.
Return reported Delta latency time; argument: "COc1ccc(S(=O)(=O)N2CCN3C(=O)CC[C@@H]3C2)cc1"
103.5 s

Please give the result for "O=C(c1ccc(Cl)cc1)N1CCN2C(=O)CC[C@@H]2C1" too.
85.4 s

What do you have for "Cc1ccc(C(=O)N2CCN3C(=O)CC[C@@H]3C2)cc1" ?
84.5 s

Note, next up: C[C@@H]1C[C@@H]2CN(C(=O)c3ccccc3)CCN2C1=O (relative stereo)
65.8 s

Can you check C[C@@H]1C[C@@H]2CN(S(=O)(=O)c3ccccc3)CCN2C1=O (relative stereo) next?
78.5 s

New cases:
Entry under review: "O=C(c1ccc(F)cc1)N1CCN2C(=O)CC[C@@H]2C1" . Reported Delta latency time?
77.2 s

Likewise for CN1[C@@H]2C[C@@H](OC(=O)[C@H](CO)c3ccccc3)C[C@H]1[C@@H]1O[C@@H]12 [SCOPOLAMINE] ?
27.9 s

Again, but for C[C@H]1C[C@@H]2CN(S(=O)(=O)c3ccc(F)cc3)CCN2C1=O (relative stereo)
78 s

Quick one: C[C@H]1C[C@@H]2CN(C(=O)c3ccc(F)cc3)CCN2C1=O (relative stereo)
85.6 s

Do the same for C[C@@H]1C[C@@H]2CN(S(=O)(=O)c3ccc(F)cc3)CCN2C1=O (relative stereo) please
96.5 s

====

# Species: Mus musculus
# assayMethodText: Change in the latency time on day 1 to that of day 2
# Format: functional
# maps each entry to its Delta latency time
Give your result in s as a bare value.

Study these solved cases before continuing.
Request the reported Delta latency time associated with C[C@@H]1C[C@@H]2CN(C(=O)c3ccc(F)cc3)CCN2C1=O (relative stereo)
80

What do you have for "NC(=O)CN1CCCC1=O" ?
91.2

Entry to check: "O=C(c1ccc([N+](=O)[O-])cc1)N1CCN2C(=O)CC[C@@H]2C1"
78.2

Item: C[C@H]1C[C@@H]2CN(S(=O)(=O)c3ccccc3)CCN2C1=O (relative stereo)
73

Continuing:
Requested read-out: Delta latency time. Entry: "Cc1ccc(S(=O)(=O)N2CCN3C(=O)CC[C@@H]3C2)cc1"
80.5

Cool, now "O=C1CC[C@@H]2CN(S(=O)(=O)c3ccc([N+](=O)[O-])cc3)CCN12"
75.4

Also check "O=C1CC[C@@H]2CN(Cc3ccccc3)CCN12"
63.2

Moving on to "O=C(c1ccccc1)N1CCN2C(=O)CC[C@@H]2C1"
85.2

Another: "O=C1CC[C@@H]2CN(S(=O)(=O)c3ccc(F)cc3)CCN12"
93.8

Please give the result for C[C@H]1C[C@@H]2CN(C(=O)c3ccccc3)CCN2C1=O (relative stereo) too.
85.2
